What follows is literature data on Ki for Sodium-dependent serotonin transporter (Homo sapiens).

**Query** Please tell me: Ki of `O=C(/C=C/c1ccc(Br)cc1)NCCNCCOC(c1ccc(F)cc1)c1ccc(F)cc1` , system Sodium-dependent serotonin transporter (Homo sapiens)?
**Result** 590 nM

**Query** Please tell me: Ki of `C[C@@H]1CN(c2cccc3cc(F)ccc23)CCN1CC[C@@H]1OCCc2cc(C(N)=O)ccc21` , system Sodium-dependent serotonin transporter (Homo sapiens)?
**Result** 3 nM

**Query** Please tell me: Ki of COc1ccc(C2CN(C)Cc3cc(OCCCN4CCC(F)CC4)ccc32)cc1 (single isomer, unassigned; (-)) , system Sodium-dependent serotonin transporter (Homo sapiens)?
**Result** 9.3 nM

**Query** Please tell me: Ki of O=c1[nH]c2cccc(OC3CCN(CC4CCc5[nH]c6ccc(F)cc6c5C4)CC3)c2o1 (centres undefined) , system Sodium-dependent serotonin transporter (Homo sapiens)?
**Result** 3 nM

**Query** Please tell me: Ki of `CN(C)Cc1cc(OCCCF)ccc1Sc1ccc(Br)cc1N` , system Sodium-dependent serotonin transporter (Homo sapiens)?
**Result** 0.15 nM

**Query** Please tell me: Ki of `COCCOc1cccc(CC2CCN(CCc3cc4c(cc3Cl)OCCO4)CC2)c1Br` , system Sodium-dependent serotonin transporter (Homo sapiens)?
**Result** 74.6 nM

**Query** Please tell me: Ki of `C[C@H]1CN(c2cccc3cc(C#N)ccc23)CCN1CC[C@H]1OCc2cc(C(N)=O)ccc21` , system Sodium-dependent serotonin transporter (Homo sapiens)?
**Result** 1.3 nM

**Query** Please tell me: Ki of `CC(C)Oc1ccccc1N1CCN(CCNC(=O)Cn2nc(-n3ccnc3)ccc2=O)CC1` , system Sodium-dependent serotonin transporter (Homo sapiens)?
**Result** > 10000 nM

**Query** Please tell me: Ki of `O=C1CN(CCc2ccccc2)CCN1CCOC(c1ccc(F)cc1)c1ccc(F)cc1` , system Sodium-dependent serotonin transporter (Homo sapiens)?
**Result** 114 nM
